Assign growth inhibition to each entry below.
test: inhibition of 3D7 malaria parasite growth – strain 3D7 (AID 2306);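 further: 0% = DMSO wells and 100% = chloroquine plus artemisinin control wells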; conditions: P. falciparum 3D7 erythrocytic growth, LDH absorbance, 72 h; at 2 µM; hits give high values
Your answer should be a plain number; it is taken to be in %.

Determine its reported growth inhibition: O=C(Nc1cccc(CN2CCCN(CC3CCCCC3)CC2)c1)c1ccc(Cl)c(Cl)c1
91

Determine its reported growth inhibition: Cc1noc(C)c1-c1cccc(CNCc2cccc(-c3cccc(-c4nc5ccc(C(F)(F)F)cc5[nH]4)c3)c2)c1
101

Determine its reported growth inhibition: COc1ccc2nc(-c3ccccc3)cc(NN=Cc3ccc([N+](=O)[O-])cc3)c2c1
102

Determine its reported growth inhibition: O=C(Nc1ccc2oc(-c3ccc(Cl)cc3Cl)nc2c1)c1ccc([N+](=O)[O-])o1
95

Determine its reported growth inhibition: CC1CCCCC1N(C)C1CCN(CCCNC(=O)C=Cc2ccc(Cl)cc2Cl)CC1 (stereo unspecified)
101

Determine its reported growth inhibition: Cc1cccc2[nH]c(-c3cc(-c4cccc(Cl)c4)cnc3N)nc12
101

* * *

Assign growth inhibition to each entry below.
assay: antimalarial activity against Dd2 strain (AID 2302);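 further: 0% = DMSO untreated growth and 100% = chloroquine plus artemisinin killed control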; settings: P. falciparum Dd2 in RBCs, LDH growth readout, 72 h; at 2 µM; hits give high values
Your answer should be a plain number; it is taken to be in %.

Determine its reported growth inhibition: CN(c1ccc(NC(=O)Nc2cc(C(F)(F)F)ccc2F)cc1)c1ccnc(NCCN2CCCC2)n1
1

Determine its reported growth inhibition: CCOc1cc(C(=O)NC2CCN(Cc3ccccc3)CC2)ccc1-c1nc2ccc(Cl)cc2[nH]1
84

Determine its reported growth inhibition: CCCCCCSc1nnc(COc2cccc3ccccc23)n1-c1ccc(OC)cc1
100

Determine its reported growth inhibition: COCCCNC(=O)C1CCN(C(c2ccc(Cl)cc2)c2ccc(Cl)cc2)CC1
63

Determine its reported growth inhibition: COc1ccc(-c2ccc3c(-c4ccc(F)cc4)cnc(N)c3c2)cn1
86

* * *

assay: inhibition of 3D7 malaria parasite growth – strain 3D7 (AID 2306);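 further: 0% = DMSO wells and 100% = chloroquine plus artemisinin control wells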; details: P. falciparum 3D7 erythrocytic growth, LDH absorbance, 72 h; at 2 µM; hits give high values
Assign growth inhibition to each entry below.
Your answer should be a plain number; it is taken to be in %.

Determine its reported growth inhibition: CN1CCCN(Cc2ccc(-c3ccc(NC(=O)c4cccc(C#N)c4)cc3)cc2)CC1
97

Determine its reported growth inhibition: COc1cccc2c(NN=Cc3cccc(Cl)c3)cc(C)nc12
101

Determine its reported growth inhibition: COc1ccc2[nH]c3ccccc3c(=O)c2c1
87

Determine its reported growth inhibition: O=C(NCCCNc1ccc2ccccc2n1)c1cc2c(Cl)cc(Cl)cc2[nH]1
100

Determine its reported growth inhibition: COc1ccc(-c2cccc(NC(=O)c3ccc(C#N)cc3)c2)cc1CN1CCCN(C)CC1
101

Determine its reported growth inhibition: O=C(Nc1ccccc1N1CCOCC1)c1ncoc1-c1ccccc1C(F)(F)F
89

Determine its reported growth inhibition: CN1CCN(c2ccnc3cc4ccccc4cc23)CC1
93

Determine its reported growth inhibition: O=C(Nc1cccc(-c2ccc(-c3nc4ccccc4[nH]3)cc2)c1)c1cccnc1
100

Determine its reported growth inhibition: CN1CCN(CCCN(Cc2ccc(-c3cccc(CNCc4ccc5c(c4)OCO5)c3)cc2)C(=O)NC2CCCCC2)CC1
95

Determine its reported growth inhibition: O=C(Nc1cccc(Cl)c1Cl)NC1CCN(Cc2cccc(O)c2)CC1
98

Determine its reported growth inhibition: O=C(/C=C/c1ccc(Cl)c(Cl)c1)NCCC(CN1CCC(c2c[nH]c3ccccc23)CC1)c1ccccc1 (stereo unspecified)
100

Determine its reported growth inhibition: O=C(NCC1Cc2cc(Oc3ccccc3)ccc2O1)c1ccc([N+](=O)[O-])o1 (stereo unspecified)
88

Determine its reported growth inhibition: O=[N+]([O-])c1ccc2c(c1)c1ccccc1n2Cc1ccccc1O
93

Determine its reported growth inhibition: CSc1ccc2ccccc2c1CNCCCCCCNCc1c(SC)ccc2ccccc12
99

Determine its reported growth inhibition: CC(C)(C)c1ccc(NC(=O)c2cccc(CN3CCN(Cc4cccc(O)c4)CC3)c2)cc1
92

Determine its reported growth inhibition: NC1=NC2(CCCCC2)N(OCCCOc2cccc3ccccc23)C(N)=N1
95

* * *

experiment: human hepatoma cell viability loss – ATP luminescence, cytotoxicity control for P. falciparum antimalarial project, primary screen (AID 2303); conditions: HepG2 viability, 24-48 h, at 10 µM, hits give high values;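 further: 0% = DMSO wells and 100% = digitonin-killed cells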
Returns: string. Value is YES if measured inhibition is below 10%, and NO if it is greater than or equal to it.

Would you kindly verify if inhibition of O=C(NCC1Cc2cc(Oc3ccccc3)ccc2O1)c1ccc([N+](=O)[O-])o1 (configuration not stated) is strictly less than 10%?
NO

Would you kindly verify if inhibition of CC1(C)N=C(N)NC(Nc2ccc(Cl)cc2)=N1 is strictly less than 10%?
YES

Would you kindly verify if inhibition of CC(C)COc1ccc(Cl)cc1Cc1ccc(-c2nc3ccc(N4CCN(C)CC4)cc3[nH]2)o1 is strictly less than 10%?
YES

Would you kindly verify if inhibition of COc1ccc(CN2CCCN(Cc3cccc(C(=O)Nc4ccc(C(C)(C)C)cc4)c3)CC2)cc1 is strictly less than 10%?
NO

Would you kindly verify if inhibition of COCCN(CCOC)c1ncc(-c2ccsc2)c(-c2nc(C)c(C)s2)n1 is strictly less than 10%?
YES

Would you kindly verify if inhibition of Nc1nc(N)c2cc(S(=O)(=O)c3ccc4ccccc4c3)ccc2n1 is strictly less than 10%?
NO

Would you kindly verify if inhibition of CCN(CCCN1CCCCC1)c1cc(C)nc(Nc2cc(C)ccc2C)n1 is strictly less than 10%?
NO

* * *

experiment: human hepatoma cell viability loss – ATP luminescence, cytotoxicity control for P. falciparum antimalarial project, primary screen (AID 2303); details: HepG2 viability, 24-48 h, at 10 µM, hits give high values;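 further: 0% = DMSO wells and 100% = digitonin-killed cells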
Assign inhibition to each entry below.
Your answer should be a plain number; it is taken to be in %.

Determine its reported inhibition: Cc1cc(NCc2ccccc2)nc(NCc2ccccc2)n1
21

Determine its reported inhibition: CN1CCN(Cc2cc3cc(NC(=O)/C=C/c4cccc(Cl)c4)ccc3s2)CC1
54

Determine its reported inhibition: COc1cc(NCCCCNc2ccc(Cl)c(Cl)c2)nc2ccccc12
22

Determine its reported inhibition: CCCCCC(=O)N1CCOC(CCN2CCc3c(c4ccccc4n3C)C2)(c2ccc(Cl)c(Cl)c2)C1 (stereo not drawn)
24

Determine its reported inhibition: Cc1ccc(N2C(=O)C3C(C2=O)[C@]2(c4ccccc4)C(=O)[C@@]3(c3ccccc3)C(c3ccccc3)=C2c2ccccc2)c(C)c1 (stereo partly drawn)
3

Determine its reported inhibition: O=C(O)C1Cc2c([nH]c3ccccc23)C(c2ccc(Cl)cc2Cl)N1 (stereo not drawn)
7

Determine its reported inhibition: CN(C)CCC1CCN(CCS(=O)(=O)c2cccc(Nc3ccc(-c4ccsc4)cn3)c2)CC1
49

Determine its reported inhibition: Cc1cc(O)c(CNC2CCCCC2)cc1C
6

Determine its reported inhibition: COc1cc(CNCCC(C)C)ccc1OCc1cccc(COc2ccc(CNCCC(C)C)cc2OC)c1
97

Determine its reported inhibition: CC[C@H](C)CNC(=O)c1cncc(-c2cccc(CNC3Cc4ccccc4C3)c2)c1
5

Determine its reported inhibition: Cc1ccc(OCC2CCN(c3ncc(C(=O)NCCCN4CCCC4=O)cc3Cl)CC2)cc1
7

Determine its reported inhibition: CCc1cc2c3c(N)nc(N)nc3ccc2n1CC
62

Determine its reported inhibition: CC1(C)N=C(N)N=C(N)N1c1ccccc1
16

Determine its reported inhibition: Cc1cccc2[nH]c(-c3cccc(-c4cccc(CNCCc5ccncc5)c4)c3)nc12
20

Determine its reported inhibition: O=C(Nc1cccc(-c2ccc(-c3nc4ccc(F)cc4[nH]3)cc2)c1)c1csnn1
22

Determine its reported inhibition: CC(C)(C)c1ccc(NC(=O)c2cccc(CN3CCN(Cc4cccc(O)c4)CC3)c2)cc1
28

Determine its reported inhibition: CC1(C)N=C(N)NC(NOCCCCCCONC2=NC(C)(C)N=C(N)N2)=N1
34

Determine its reported inhibition: CC1CCC(NCc2c(O)ccc3ccccc23)CC1 (stereo not drawn)
13

Determine its reported inhibition: Oc1ccc(CCNCc2ccc(OCc3ccccc3)c(OCc3ccccc3)c2)cc1
31

Determine its reported inhibition: O=C(NCCCNc1ccc2ccccc2n1)c1cc2c(Cl)cc(Cl)cc2[nH]1
40

Determine its reported inhibition: CCOc1cc(NCCCNc2ncc([N+](=O)[O-])cc2C)nc2ccccc12
10

Determine its reported inhibition: CCN(CC)CCN(Cc1ccc(-c2ccc(C(F)(F)F)cc2)cc1)C(=O)Cn1c(CCc2cc(F)cc(F)c2F)nc(=O)c2ccccc21
36

Determine its reported inhibition: Cc1cc2c(NC(=O)NC3CCN(Cc4ccc(Cl)c(Cl)c4)CC3)cccc2cn1
11

* * *

test: antimalarial activity against Dd2 strain (AID 2302);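 further: 0% = DMSO untreated growth and 100% = chloroquine plus artemisinin killed control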; settings: P. falciparum Dd2 in RBCs, LDH growth readout, 72 h; at 2 µM; hits give high values
quantity measured: growth inhibition (%)
Your answer should be a plain number; it is taken to be in %.

Determine its reported growth inhibition: CCCCN(CCCC)CCCCNc1c2ccc(Cl)cc2nc2ccc(OC)cc12
96

Determine its reported growth inhibition: N#Cc1ccc(Cn2ccc3c4c(N)nc(N)nc4ccc32)cc1
95

Determine its reported growth inhibition: Cc1cc(N(C)C)nc(Nc2ccc(NC(=O)C(C)Oc3ccccc3)cc2)n1 (stereo not given)
30

Determine its reported growth inhibition: CCN1CCC(NCc2ccc(-c3ccc(Cl)s3)cc2)CC1
23

Determine its reported growth inhibition: CC(C)CNCc1ccc(-c2ccccc2CN(C(=O)NCCc2ccccc2)C2CCN(Cc3ccccc3)CC2)cc1
94

Determine its reported growth inhibition: Nc1nc(N)c2c(ccc3c2ccn3Cc2ccccn2)n1
94

Determine its reported growth inhibition: CC(=O)N(C)c1ccc(C(=O)Nc2cccc(-c3cccc(-c4nc5c(C)cccc5[nH]4)c3)c2)cc1
30

Determine its reported growth inhibition: CCC(C)(C)c1ccc(OCCCC(=O)Nc2ccc(Cl)c([N+](=O)[O-])c2)c(C(C)(C)CC)c1
88

Determine its reported growth inhibition: COc1ccccc1C1CCN(C2CCC(NC(=O)/C=C/c3cccc(Cl)c3)CC2)CC1 (stereo not given)
20

Determine its reported growth inhibition: O=c1c(Br)ccccc1Br
41

All values here come from PubChem BioAssay.
